experimentSummary: Maximum tolerated dose (MTD)
Format: in vivo, C3H mice
testConditions: mouse, in vivo, ip; intraperitoneal; b203: maximum dose used was the MTD; read-out: maximum tolerated dose (MTD) = maximum dose used in Table 2
Could you please report measured MTD for the items listed next?
Numbers only, in mg/kg.

compound="O=[N+]([O-])c1nccn1CC(O)CNCCBr (centres unmarked) [RB-6145]" propertyname=MTD readoutvalue=300

Kindly review the next compound as well.
Task: Given O=[N+]([O-])c1nccn1CC(O)CN1CC1 (centres unmarked) [RSU-1069] , state its recorded MTD.
Result: 80

* * *

Could you please report measured CC90 at 3 h for the items listed next?
experimentSummary: Toxicity to cells, 3 hours at 37° C., in air and in N2
Type: cell-based
testConditions: air; concentration required for a surviving fraction of 10^-1; 3 hours at 37° C.; full growth medium (bicarbonate); read-out: CAir
Give bare numbers, in mM.

Example compounds with recorded CC90 at 3 h:
compound="O=[N+]([O-])c1nccn1CC(O)CNCCI (centres unmarked)" readoutvalue=2.4
compound="O=[N+]([O-])c1nccn1CC(O)CNCCF (centres unmarked)" readoutvalue=35
compound="O=[N+]([O-])c1nccn1CC(O)CNCCBr (centres unmarked)" readoutvalue=2.3
compound="O=[N+]([O-])c1nccn1CC(O)CNCCCl (centres unmarked)" readoutvalue=5

Kindly review the next compound as well.
Task: Given O=[N+]([O-])c1nccn1CC(O)CNCCO (centres unmarked) [RSU-1137, reference compound] , state its recorded CC90 at 3 h.
Result: 70
